Origin of measurements: ChEMBL document CHEMBL2380263

- test details: Solubility of the compound in PBS at pH 7.4
- Assay type: physicochemical
Entries and their solubility values follow.

| chemical structure | solubility [µg/mL] |
| --- | --- |
| CC1(C)OC(=O)N([C@H]2CC[C@H](n3c(=O)[nH]c4c(F)c(C#N)ccc43)CC2)[C@H]1c1ccccc1 | 12 |
| CC1(C)OC(=O)N([C@H]2CC[C@H](NC(=O)c3cccc4cccnc34)CC2)[C@H]1c1ccccc1 | 19 |
| CC1(C)OC(=O)N(c2ccc(C(=O)Nc3cccc4cccnc34)cc2)[C@H]1c1ccccc1 | 1 |
| CC1(C)OC(=O)N(c2ccc(C(=O)Nc3ccnc4cccnc34)cc2)[C@H]1c1ccccc1 | 1 |
| CC1(C)OC(=O)N([C@H]2CC[C@H](n3c(=O)[nH]c4cc(C#N)c(F)cc43)CC2)[C@H]1c1ccccc1 | 3 |
| CC1(C)OC(=O)N([C@H]2CC[C@H](NC(=O)c3ccnc4cc(F)cnc34)CC2)[C@H]1c1ccccc1 | 81 |
| CC1(C)OC(=O)N([C@H]2CC[C@H](C(=O)Nc3cccc4cccnc34)CC2)[C@H]1c1ccccc1 | 5 |
